The reported numbers originate from the supplement of paper PMC3334620.

Reported PBM E-score values follow for various sequences
Molecular target: Abf1 (UniProt P14164)
Sequence: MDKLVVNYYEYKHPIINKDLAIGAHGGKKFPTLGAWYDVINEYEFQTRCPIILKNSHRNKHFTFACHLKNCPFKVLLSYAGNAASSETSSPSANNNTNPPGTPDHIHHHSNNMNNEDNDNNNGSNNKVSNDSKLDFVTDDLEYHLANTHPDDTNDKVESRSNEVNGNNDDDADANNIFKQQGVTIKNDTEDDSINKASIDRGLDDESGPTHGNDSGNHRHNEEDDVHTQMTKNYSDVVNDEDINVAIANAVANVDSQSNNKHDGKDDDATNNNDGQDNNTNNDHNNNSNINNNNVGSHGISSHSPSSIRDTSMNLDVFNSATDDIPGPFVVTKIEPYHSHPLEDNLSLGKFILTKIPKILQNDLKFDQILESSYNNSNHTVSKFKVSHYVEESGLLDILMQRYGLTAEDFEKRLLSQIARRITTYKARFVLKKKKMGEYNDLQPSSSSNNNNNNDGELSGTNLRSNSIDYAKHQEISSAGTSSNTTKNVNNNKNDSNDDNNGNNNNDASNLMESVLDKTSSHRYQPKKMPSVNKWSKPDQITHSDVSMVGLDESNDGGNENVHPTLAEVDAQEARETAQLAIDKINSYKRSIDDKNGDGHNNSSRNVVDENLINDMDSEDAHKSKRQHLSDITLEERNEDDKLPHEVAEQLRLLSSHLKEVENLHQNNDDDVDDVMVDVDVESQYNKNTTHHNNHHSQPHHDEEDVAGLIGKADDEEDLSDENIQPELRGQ
Test: PBM E-score (8-mer binding enrichment) (E-score (-0.5 to 0.5)); higher = stronger / more preferred TF binding
Conditions: protein concentration: 200 nM; construct: GST-full length
Over roughly 33,000 sequences, “E-score (-0.5 to 0.5)” has its median near -0.015; the highest 2% begin near 0.3. The entries come from a sample that favours the highest values as a whole.
measured attribute: PBM E-score

1) AGTGACTC | 0.149
2) GGTGACAA | 0.423
3) ACTGAAAT | -0.0641
4) GAGTAAAC | -0.0509
5) TCTCCAAA | -0.0776
6) CCGTGATA | 0.283
7) AAGCTCTC | -0.125
8) AGGGCTTC | 0.0312
9) GCGTGAGA | 0.168
10) GCCGTACA | 0.294
11) CGTCTCTC | 0.162
12) AGCACTTC | 0.0874
13) ACCAGTGG | -0.261
14) AGCCGTAA | 0.193
15) GTGGAGAA | 0.0678
16) GCGGTTTA | -0.161
17) ATGTGATA | 0.291
18) CCTCTGAG | -0.215
19) ATTTTCCG | 0.1
20) CGTGACAC | 0.252
21) GGCCCTTA | -0.233
22) CTCACTTC | -0.0359
23) AACACTTG | -0.0627
24) CAAATAGA | 0.0564
25) GCCGTACC | 0.356
26) CGTGACAA | 0.375
27) GCTGACAA | 0.0133
28) CAACGTAA | -0.0145
29) AAACTCAA | 0.0218
30) CTGTGATA | 0.201
31) CCACGCGG | -0.0923
32) CCTTACAC | -0.0587
33) ATTGACAC | -0.12
34) GACACTTA | -0.0374
35) GTGTGATA | 0.327
36) CTCACTTA | 0.14
37) GCGCCGTA | 0.291
38) GTTCTTCA | 0.117
39) AGAAGGCG | -0.119
40) AAATATCC | 0.0659
41) AAATATCG | 0.271
42) GCCACTTA | -0.0218
43) AGTGACTG | 0.175
44) ACAGGGGG | -0.357
45) ACGTGATG | 0.215
46) CCATTTCC | -0.0246

###

Biological target: Abf1 (UniProt P14164)
Sequence: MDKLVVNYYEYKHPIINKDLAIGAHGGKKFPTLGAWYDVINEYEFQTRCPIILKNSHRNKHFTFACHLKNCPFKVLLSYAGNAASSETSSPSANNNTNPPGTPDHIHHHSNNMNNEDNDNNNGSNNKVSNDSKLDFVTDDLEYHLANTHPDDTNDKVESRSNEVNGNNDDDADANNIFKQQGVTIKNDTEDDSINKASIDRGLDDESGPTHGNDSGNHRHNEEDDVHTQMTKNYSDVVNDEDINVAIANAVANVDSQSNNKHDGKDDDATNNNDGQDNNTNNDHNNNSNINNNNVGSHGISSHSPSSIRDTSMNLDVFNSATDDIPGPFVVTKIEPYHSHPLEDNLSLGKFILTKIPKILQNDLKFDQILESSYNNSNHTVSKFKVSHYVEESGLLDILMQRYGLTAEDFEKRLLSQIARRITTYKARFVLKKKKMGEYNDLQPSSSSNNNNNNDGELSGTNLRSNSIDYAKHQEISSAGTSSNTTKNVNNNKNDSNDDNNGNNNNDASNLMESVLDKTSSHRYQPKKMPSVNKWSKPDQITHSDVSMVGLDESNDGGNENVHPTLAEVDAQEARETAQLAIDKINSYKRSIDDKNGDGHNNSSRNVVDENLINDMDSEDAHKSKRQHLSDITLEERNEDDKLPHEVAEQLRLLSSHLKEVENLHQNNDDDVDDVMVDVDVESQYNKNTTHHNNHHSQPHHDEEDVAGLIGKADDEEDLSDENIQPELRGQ
Test: PBM E-score (8-mer binding enrichment) (E-score (-0.5 to 0.5)); higher = stronger / more preferred TF binding
Conditions: protein concentration: 200 nM; construct: GST-full length
Whole data set: some 33,000 sequences, median “E-score (-0.5 to 0.5)” near -0.015, cut for the highest 2% near 0.3. Many of the other results were omitted from the sample, so the highest values are more common in it than they were.
Everything with PBM E-score lower than 0.2 is Not met; everything else, including exactly 0.2, is Met.

1) ATTCACGA | Met
2) GATCGCCA | Not met
3) GATGGGCC | Not met
4) CTTCAGAA | Not met
5) AAGTGACG | Met
6) CATACGCC | Not met
7) GCTCACGA | Not met
8) CATACGAC | Met
9) GTTCACGA | Met
10) ACATTGGG | Not met
11) AAGTGGCT | Not met
12) GGGTGCTA | Not met
13) GATCACGA | Met
14) CGACAAAC | Not met
15) AGTGTGGA | Not met
16) AACGGGGC | Not met
17) CACGAAGA | Met
18) TACAGGCA | Not met
19) ACGACGGA | Met
20) ACGACGAA | Met
21) AAGTGCCA | Not met
22) TATCGCGA | Met
23) AATCGCGA | Not met
24) TCCGAAGA | Not met
25) AGGGGACA | Not met
26) AACGAAGA | Not met
27) CTAATCAC | Met
28) CATACGAG | Not met
29) ACCGTCAT | Met
30) ACGACGCA | Met
31) AAGTGACC | Met
32) ATAATCAA | Not met
33) CCTCCCAC | Not met
34) TCTCTCCA | Not met
35) GCGACGAA | Met
36) ATCGTCAA | Met
37) TCGAGCAA | Not met
38) CATCACGC | Not met
39) TACGAATA | Met
40) GATCACAA | Met
41) TCGACAAA | Not met
42) ATAATCAG | Not met

###

Molecular target: Abf1 (UniProt P14164)
Sequence: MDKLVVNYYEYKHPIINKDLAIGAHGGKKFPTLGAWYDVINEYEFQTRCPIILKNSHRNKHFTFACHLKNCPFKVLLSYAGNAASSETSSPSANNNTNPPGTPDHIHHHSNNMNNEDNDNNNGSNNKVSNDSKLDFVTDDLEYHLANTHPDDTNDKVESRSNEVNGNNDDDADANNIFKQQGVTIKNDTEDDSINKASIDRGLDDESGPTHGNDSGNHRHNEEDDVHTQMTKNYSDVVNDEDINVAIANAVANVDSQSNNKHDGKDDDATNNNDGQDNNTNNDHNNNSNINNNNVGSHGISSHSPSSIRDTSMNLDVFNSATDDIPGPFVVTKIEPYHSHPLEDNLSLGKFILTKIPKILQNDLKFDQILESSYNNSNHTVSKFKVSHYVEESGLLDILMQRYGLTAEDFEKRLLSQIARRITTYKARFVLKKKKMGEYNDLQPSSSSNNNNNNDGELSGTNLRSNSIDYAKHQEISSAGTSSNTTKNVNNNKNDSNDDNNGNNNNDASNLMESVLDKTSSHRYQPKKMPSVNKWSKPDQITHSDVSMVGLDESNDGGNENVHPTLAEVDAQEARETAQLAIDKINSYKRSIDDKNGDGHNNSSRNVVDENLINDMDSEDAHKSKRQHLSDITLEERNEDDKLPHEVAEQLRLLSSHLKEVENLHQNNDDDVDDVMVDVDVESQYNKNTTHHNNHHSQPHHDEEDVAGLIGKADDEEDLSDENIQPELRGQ
Assay: PBM E-score (8-mer binding enrichment) (E-score (-0.5 to 0.5)); higher = stronger / more preferred TF binding
Conditions: protein concentration: 200 nM; construct: GST-full length
Whole data set: some 33,000 sequences, median “E-score (-0.5 to 0.5)” near -0.015, cut for the highest 2% near 0.3. Shown is part of a subset that was picked to be rich in the highest values.
Everything with PBM E-score lower than 0.1 is Condition not met; everything else, including exactly 0.1, is Condition met.

1) AACGAACG | Condition met
2) GCCATTAA | Condition not met
3) CACGATCG | Condition met
4) AGCAGGCA | Condition not met
5) CCCTCGGA | Condition not met
6) TACGAACA | Condition met
7) GACGAACA | Condition met
8) GCACCCAA | Condition not met
9) CAGAAGGG | Condition not met
10) TGCGAAAA | Condition met
